Assay: in vitro
Format: cell-based, human
Conditions: human, leucocytes, first experimentation; 68 hours; C5 = 30 μg/ml; read-out: % of dead cells
Measured Metric: cytotoxicity at 68 h

>>> test_result("COc1cc2c(c(OC)c1OC)-c1ccc(SC)c(=O)cc1C(NC(=O)C13CC4CC(CC(C4)C1)C3)CC2 (single isomer, unassigned)")
"20%"
>>> test_result("COc1cc2c(c(OC)c1OC)-c1ccc(OC)c(=O)cc1[C@@H](NC(C)=O)CC2 [Colchicine, colchicine, reference compound]")
"9%"

====

Assay: in vitro
Assay type: cell-based, human
Conditions: human, leucocytes, Culture II; 23 hours; carboxy-1-adamantane C3 = 4.5 μg/ml; read-out: % of dead cells
Measured Metric: cytotoxicity at 23 h

>>> test_result("O=C(O)C12CC3CC(CC(C3)C1)C2")
"18%"

====

Test: in vitro
Type: cell-based, human
Conditions: human, leucocytes, Culture II; 72 hours; carboxy-1-adamantane C6 = 22.5 μg/ml; read-out: % of dead cells
Measured Metric: cytotoxicity at 72 h

>>> test_result("O=C(O)C12CC3CC(CC(C3)C1)C2")
"25%"

====

Entries annotated with measured cytotoxicity at 48 h
Assay: in vitro
Settings: human, leucocytes, % of dead cells (Average of 2 determinations), 48 hours; C3 = 0.5 μg/ml; no PHA
Measured Metric: cytotoxicity at 48 h (%)

>>> test_result("COc1cc2c(c(OC)c1OC)-c1ccc(SC)c(=O)cc1C(NC(=O)C13CC4CC(CC(C4)C1)C3)CC2 (single isomer, unassigned)")
91
>>> test_result("COc1cc2c(c(OC)c1OC)-c1ccc(OC)c(=O)cc1[C@@H](NC(C)=O)CC2 [Colchicine, colchicine, reference compound]")
91

====

Test: in vitro
Settings: human, leucocytes, % of dead cells (Average of 2 determinations), 30 hours; C2 = 0.1 μg/ml; no PHA
Measured Metric: cytotoxicity at 30 h (%)

>>> test_result("COc1cc2c(c(OC)c1OC)-c1ccc(SC)c(=O)cc1C(NC(=O)C13CC4CC(CC(C4)C1)C3)CC2 (single isomer, unassigned)")
54
>>> test_result("COc1cc2c(c(OC)c1OC)-c1ccc(OC)c(=O)cc1[C@@H](NC(C)=O)CC2 [Colchicine, colchicine, reference compound]")
68

====

Entries annotated with measured cytotoxicity at 46 h
Experiment: in vitro
Assay type: cell-based, human
Settings: human, leucocytes, Culture II; 46 hours; C3 = 10 μg/ml; read-out: % of dead cells
Measured Metric: cytotoxicity at 46 h (%)

>>> test_result("COc1cc2c(c(OC)c1OC)-c1ccc(SC)c(=O)cc1C(NC(=O)C13CC4CC(CC(C4)C1)C3)CC2 (single isomer, unassigned)")
13
>>> test_result("COc1cc2c(c(OC)c1OC)-c1ccc(OC)c(=O)cc1[C@@H](NC(C)=O)CC2 [Colchicine, colchicine, reference compound]")
8

====

Assay: in vitro
Type: cell-based, human
Conditions: human, leucocytes, first experimentation; 42 hours; C5 = 30 μg/ml; read-out: % of dead cells
Entries annotated with measured cytotoxicity at 42 h
Measured Metric: cytotoxicity at 42 h (%)

>>> test_result("COc1cc2c(c(OC)c1OC)-c1ccc(SC)c(=O)cc1C(NC(=O)C13CC4CC(CC(C4)C1)C3)CC2 (single isomer, unassigned)")
23
>>> test_result("COc1cc2c(c(OC)c1OC)-c1ccc(OC)c(=O)cc1[C@@H](NC(C)=O)CC2 [Colchicine, colchicine, reference compound]")
10

====

Experiment: in vitro
Format: cell-based, human
Conditions: human, leucocytes, Culture II; 23 hours; carboxy-1-adamantane C6 = 22.5 μg/ml; read-out: % of dead cells
Measured Metric: cytotoxicity at 23 h (%)

>>> test_result("O=C(O)C12CC3CC(CC(C3)C1)C2")
14

====

Experiment: in vitro
Type: cell-based, human
Conditions: human, leucocytes, first experimentation; 3 hours; C6 = 50 μg/ml; read-out: % of dead cells
Procedure: The cytotoxicity has been investigated on human leucocytes by means of the viability test with Trypan blue. a. […] After 3, 42, 68 and 72 hours of incubation a sample of each culture was contacted by a drop of Trypan blue and laid on a slide of a microscope. […] The results expressed as a rate in per cent are shown in the accompanying table 8. […] The percentage of dead cells was determined after different numbers of hours of incubation.
Measured Metric: cytotoxicity at 3 h

>>> test_result("COc1cc2c(c(OC)c1OC)-c1ccc(OC)c(=O)cc1[C@@H](NC(C)=O)CC2 [Colchicine, colchicine, reference compound]")
"0%"

====

Test: in vitro
Assay type: cell-based, human
Conditions: human, leucocytes, Culture II; 72 hours; C1 = 2.5 μg/ml; read-out: % of dead cells
Measured Metric: cytotoxicity at 72 h (%)

>>> test_result("COc1cc2c(c(OC)c1OC)-c1ccc(SC)c(=O)cc1C(NC(=O)C13CC4CC(CC(C4)C1)C3)CC2 (single isomer, unassigned)")
26
>>> test_result("COc1cc2c(c(OC)c1OC)-c1ccc(OC)c(=O)cc1[C@@H](NC(C)=O)CC2 [Colchicine, colchicine, reference compound]")
13

====

Test: in vitro
Conditions: human, leucocytes, % of dead cells (Average of 2 determinations), 48 hours; C4 = 1.0 μg/ml; no PHA
Measured Metric: cytotoxicity at 48 h (%)

>>> test_result("COc1cc2c(c(OC)c1OC)-c1ccc(SC)c(=O)cc1C(NC(=O)C13CC4CC(CC(C4)C1)C3)CC2 (single isomer, unassigned)")
94
>>> test_result("COc1cc2c(c(OC)c1OC)-c1ccc(OC)c(=O)cc1[C@@H](NC(C)=O)CC2 [Colchicine, colchicine, reference compound]")
95

====

Assay: in vitro
Settings: human, leucocytes, % of dead cells (Average of 2 determinations), 48 hours; C1 = 0.01 μg/ml; no PHA
Entries annotated with measured cytotoxicity at 48 h
Measured Metric: cytotoxicity at 48 h (%)

>>> test_result("COc1cc2c(c(OC)c1OC)-c1ccc(SC)c(=O)cc1C(NC(=O)C13CC4CC(CC(C4)C1)C3)CC2 (single isomer, unassigned) [Derivative, N-desacetyl-N-adamantoyl-thiocolchicine]")
93
>>> test_result("COc1cc2c(c(OC)c1OC)-c1ccc(OC)c(=O)cc1[C@@H](NC(C)=O)CC2 [Colchicine, colchicine, reference compound]")
93

====

Test: in vitro
Conditions: human, leucocytes, % of dead cells (Average of 2 determinations), 6 hours; C1 = 0.01 μg/ml; no PHA
Entries annotated with measured cytotoxicity at 6 h
Measured Metric: cytotoxicity at 6 h (%)

>>> test_result("COc1cc2c(c(OC)c1OC)-c1ccc(OC)c(=O)cc1[C@@H](NC(C)=O)CC2 [Colchicine, colchicine, reference compound]")
1
>>> test_result("COc1cc2c(c(OC)c1OC)-c1ccc(SC)c(=O)cc1C(NC(=O)C13CC4CC(CC(C4)C1)C3)CC2 (single isomer, unassigned)")
1

====

Assay: in vitro
Assay type: cell-based, human
Conditions: human, leucocytes, Culture I; 22 hours; C6 = 50 μg/ml; read-out: % of dead cells
Measured Metric: cytotoxicity at 22 h (%)

>>> test_result("COc1cc2c(c(OC)c1OC)-c1ccc(OC)c(=O)cc1[C@@H](NC(C)=O)CC2 [Colchicine, colchicine, reference compound]")
7
>>> test_result("COc1cc2c(c(OC)c1OC)-c1ccc(SC)c(=O)cc1C(NC(=O)C13CC4CC(CC(C4)C1)C3)CC2 (single isomer, unassigned)")
22

====

Experiment: in vitro
Assay type: cell-based, human
Details: human, leucocytes, first experimentation; 68 hours; C1 = 2.5 μg/ml; read-out: % of dead cells
Procedure: The cytotoxicity has been investigated on human leucocytes by means of the viability test with Trypan blue. a. […] After 3, 42, 68 and 72 hours of incubation a sample of each culture was contacted by a drop of Trypan blue and laid on a slide of a microscope. […] The results expressed as a rate in per cent are shown in the accompanying table 8. […] The percentage of dead cells was determined after different numbers of hours of incubation.
Entries annotated with measured cytotoxicity at 68 h
Measured Metric: cytotoxicity at 68 h (%)

>>> test_result("COc1cc2c(c(OC)c1OC)-c1ccc(OC)c(=O)cc1[C@@H](NC(C)=O)CC2 [Colchicine, colchicine, reference compound]")
6
>>> test_result("COc1cc2c(c(OC)c1OC)-c1ccc(SC)c(=O)cc1C(NC(=O)C13CC4CC(CC(C4)C1)C3)CC2 (single isomer, unassigned) [Derivative, N-desacetyl-N-adamantoyl-thiocolchicine]")
5

====

Experiment: in vitro
Format: cell-based, human
Conditions: human, leucocytes, Culture I; 46 hours; C6 = 50 μg/ml; read-out: % of dead cells
Description: The cytotoxicity has been investigated on human leucocytes by means of the viability test with Trypan blue. a. […] After 3, 42, 68 and 72 hours of incubation a sample of each culture was contacted by a drop of Trypan blue and laid on a slide of a microscope. […] The results expressed as a rate in per cent are shown in the accompanying table 8. […] The percentage of dead cells was determined after different numbers of hours of incubation.
Measured Metric: cytotoxicity at 46 h (%)

>>> test_result("COc1cc2c(c(OC)c1OC)-c1ccc(SC)c(=O)cc1C(NC(=O)C13CC4CC(CC(C4)C1)C3)CC2 (single isomer, unassigned) [Derivative, N-desacetyl-N-adamantoyl-thiocolchicine]")
53
>>> test_result("COc1cc2c(c(OC)c1OC)-c1ccc(OC)c(=O)cc1[C@@H](NC(C)=O)CC2 [Colchicine, colchicine, reference compound]")
19
